- Tested on: HeLa Kyoto
- testName: solubility in G1/S (NP-40 vs SDS abundance) (log2 ratio); higher = more soluble
- assayContext: cell cycle stage: G1/S

residues: MGAVWSALLVGGGLAGALFVWLLRGGPGDTGKDGDAEQEKDAPLGGAAIPGGHQSGSSGLSPGPSGQELVTKPEHLQESNGHLISKTKDLGKLQAASWRLQNPSREVCDNSREHVPSGQFPDTEAPATSETSNSRSYSEVSRNESLESPMGEWGFQKGQEISAKAATCFAEKLPSSNLLKNRAKEEMSLSDLNSQDRVDHEEWEMVPRHSSWGDVGVGGSLKAPVLNLNQGMDNGRSTLVEARGQQVHGKMERVAVMPAGSQQVSVRFQVHYVTSTDVQFIAVTGDHECLGRWNTYIPLHYNKDGFWSHSIFLPADTVVEWKFVLVENGGVTRWEECSNRFLETGHEDKVVHAWWGIH [STBD1]
targetEntity: HeLa Kyoto
solubility in G1/S (log2): -0.336
--
residues: MAQVLRGTVTDFPGFDERADAETLRKAMKGLGTDEESILTLLTSRSNAQRQEISAAFKTLFGRDLLDDLKSELTGKFEKLIVALMKPSRLYDAYELKHALKGAGTNEKVLTEIIASRTPEELRAIKQVYEEEYGSSLEDDVVGDTSGYYQRMLVVLLQANRDPDAGIDEAQVEQDAQALFQAGELKWGTDEEKFITIFGTRSVSHLRKVFDKYMTISGFQIEETIDRETSGNLEQLLLAVVKSIRSIPAYLAETLYYAMKGAGTDDHTLIRVMVSRSEIDLFNIRKEFRKNFATSLYSMIKGDTSGDYKKALLLLCGEDD [ANXA5]
targetEntity: HeLa Kyoto;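 note: HeLa Kyoto cells arrested at G1/S by double thymidine block, proteins quantified by TMT10plex mass spectrometry in mild NP-40 versus SDS extracts, three biological replicates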
solubility in G1/S (log2): 0.363
